Taken from patent US9090632B2.

Target: human mGluR5 (Homo sapiens, UniProt P41594)
Sequence (P41594 21-1180 isoform P41594-2 limits assumed): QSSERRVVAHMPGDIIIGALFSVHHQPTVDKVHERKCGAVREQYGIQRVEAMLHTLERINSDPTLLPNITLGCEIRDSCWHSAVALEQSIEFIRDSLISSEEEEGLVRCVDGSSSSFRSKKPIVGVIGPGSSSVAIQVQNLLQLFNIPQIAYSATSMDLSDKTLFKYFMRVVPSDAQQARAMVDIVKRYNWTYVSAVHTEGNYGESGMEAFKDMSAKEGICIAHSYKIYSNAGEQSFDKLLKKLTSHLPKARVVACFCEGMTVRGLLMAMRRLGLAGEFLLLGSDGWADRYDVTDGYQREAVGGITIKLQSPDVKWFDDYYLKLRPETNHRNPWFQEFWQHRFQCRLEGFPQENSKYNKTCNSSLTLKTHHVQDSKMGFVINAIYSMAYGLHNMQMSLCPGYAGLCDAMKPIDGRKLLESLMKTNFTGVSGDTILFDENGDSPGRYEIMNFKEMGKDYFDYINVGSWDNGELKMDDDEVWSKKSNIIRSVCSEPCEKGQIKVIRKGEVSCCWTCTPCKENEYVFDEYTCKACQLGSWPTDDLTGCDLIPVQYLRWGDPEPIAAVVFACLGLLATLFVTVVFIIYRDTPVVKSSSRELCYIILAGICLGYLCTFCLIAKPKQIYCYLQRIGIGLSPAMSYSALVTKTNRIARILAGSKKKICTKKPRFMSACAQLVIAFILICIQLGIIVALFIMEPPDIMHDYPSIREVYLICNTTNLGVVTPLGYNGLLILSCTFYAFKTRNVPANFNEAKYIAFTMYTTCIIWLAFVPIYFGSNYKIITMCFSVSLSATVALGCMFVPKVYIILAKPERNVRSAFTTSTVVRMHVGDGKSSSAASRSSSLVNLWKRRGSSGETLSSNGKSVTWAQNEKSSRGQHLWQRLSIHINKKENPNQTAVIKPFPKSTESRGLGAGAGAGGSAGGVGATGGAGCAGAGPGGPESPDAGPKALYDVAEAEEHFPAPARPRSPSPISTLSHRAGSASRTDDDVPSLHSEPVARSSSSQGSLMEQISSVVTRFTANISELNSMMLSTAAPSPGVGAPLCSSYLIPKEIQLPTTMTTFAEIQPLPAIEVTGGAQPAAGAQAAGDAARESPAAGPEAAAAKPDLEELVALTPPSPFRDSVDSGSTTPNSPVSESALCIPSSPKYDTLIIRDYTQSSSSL
Assay: Cell-based functional Ca2+ mobilization assay, potentiation of glutamate EC20 response (H10H cell-line)
Conditions: H10H cell-line expressing recombinant human mGluR5; potentiation in presence of glutamate EC20
MEASURED PARAMETER: EC50

Solved cases (7 shown):
SMILES REPR: O=C(CC(F)(F)F)N1CCc2nc(COc3ccccc3)oc2C1
EC50: > 10 µM

SMILES REPR: N#Cc1cc(C(=O)N2CCc3nc(COc4cccc(F)c4)oc3C2)ccc1F
EC50: 1.05 µM

SMILES REPR: O=C(c1ccc(F)cc1)N1CCc2nc(COc3ccc(Br)cc3)oc2C1
EC50: > 30.2 µM

SMILES REPR: O=C(c1c[nH]c2cccnc12)N1CCc2nc(COc3ccccc3)oc2C1
EC50: > 10 µM

SMILES REPR: O=C(c1cnn2ccccc12)N1CCc2nc(COc3ccccc3)oc2C1
EC50: > 10 µM

SMILES REPR: O=C(c1ncccc1F)N1CCc2nc(COc3ccccc3)oc2C1
EC50: > 10 µM

SMILES REPR: O=C(c1ccc(=O)[nH]c1)N1CCc2nc(COc3ccccc3)oc2C1
EC50: > 30.2 µM

Okay, next one:
Input line: Name the value of EC50 reported for `Cc1noc(C(=O)N2CCc3nc(COc4ccccc4)oc3C2)n1` when tested on human mGluR5 (Homo sapiens, UniProt P41594).
Output line: > 10 µM

---

MEASURED PARAMETER: melting point (°C)

SMILES REPR: O=C(c1ccc2ccccc2n1)N1CCc2nc(COc3ccccc3)oc2C1
melting point, °C: 107.6

SMILES REPR: O=C(c1ccno1)N1CCc2nc(COc3ccccc3)oc2C1
melting point, °C: 92.5

SMILES REPR: Cc1nc(C(=O)N2CCc3nc(COc4ccccc4)oc3C2)c(C)o1
melting point, °C: 104.4

---

Target: human mGluR5 (Homo sapiens)
Experiment: Cell-based functional Ca2+ mobilization assay, potentiation of glutamate EC20 response (H10H cell-line)
Settings: H10H cell-line expressing recombinant human mGluR5; in presence of glutamate EC20; normalized to maximal glutamate response
MEASURED PARAMETER: Emax (%)

Solved cases (4 shown):
SMILES REPR: O=C(c1cccc(F)c1)N1CCc2nc(COc3ccccc3)oc2C1
ASSAYED SYSTEM: human mGluR5 (Homo sapiens)
UNIT SYMBOL: %
Emax: 80
--
SMILES REPR: COCc1ccc(C(=O)N2CCc3nc(COc4ccccc4)oc3C2)o1
ASSAYED SYSTEM: human mGluR5 (Homo sapiens)
UNIT SYMBOL: %
Emax: 62
--
SMILES REPR: O=C(c1coc2ccccc12)N1CCc2nc(COc3ccccc3)oc2C1
ASSAYED SYSTEM: human mGluR5 (Homo sapiens)
UNIT SYMBOL: %
Emax: 61
--
SMILES REPR: Cc1ccccc1OCc1nc2c(o1)CN(C(=O)c1ccc(F)cc1)CC2
ASSAYED SYSTEM: human mGluR5 (Homo sapiens)
UNIT SYMBOL: %
Emax: 57

(1) O=C(c1ccc(F)cc1)N1CCc2nc(COc3ccc(F)cc3)oc2C1
(2) O=C(c1cc(F)cc(F)c1)N1CCc2nc(COc3cccc(F)c3)oc2C1
Input line: Which has the higher Emax, 1 or 2 ? Lab log: write the label of the selected item as the result.
Output line: 1
(1: 75%, 2: 44%)
